Below is a list of entries, each paired with its recorded Kp at 3 h value.
assay.details: Bioanalysis of brain and plasma samples (exposure, UPLC-MS/MS)
Assay type: in vivo, rat
measurement.context: male, Sprague Dawley, brain/plasma, po; rat, 10 mg/kg p.o., 3 hours post dose; read-out: Brain/Plasma ratio
measure: Kp at 3 h

>  <structure.smiles.string>
C[C@@]1(c2cc(NC(=O)c3ccc(F)cn3)ccc2F)CC[C@@](F)(CF)C(N)=N1

>  <observed.measurement>
1.25

$$$$
>  <structure.smiles.string>
COc1cnc(C(=O)Nc2ccc(F)c([C@]3(C)CC[C@@](F)(CF)C(N)=N3)c2)cn1

>  <observed.measurement>
1.95

$$$$
>  <structure.smiles.string>
C[C@@]1(c2cc(NC(=O)c3cnc(C(F)F)cn3)ccc2F)CC[C@@](F)(CF)C(N)=N1

>  <observed.measurement>
2.1

$$$$

====

System: P-gp (MDR1)
assay.details: MDCK-MDR1 assay (permeability, efflux ratio)
Type: in vitro ADME
measurement.context: dog

>  <compound>
COc1cnc(C(=O)Nc2ccc(F)c([C@]3(CF)CC[C@@](F)(CF)C(N)=N3)c2)cn1 [Compound 23]

>  <efflux ratio at 60 min, 0.5 µM>
1.06

$$$$
>  <compound>
NC1=N[C@](CF)(c2cc(NC(=O)c3ccc(F)cn3)ccc2F)CC[C@@]1(F)CF [Compound 21]

>  <efflux ratio at 60 min, 0.5 µM>
0.97

$$$$
>  <compound>
Cc1cc(C#N)cnc1C(=O)Nc1ccc(F)c([C@]2(C)CC[C@@](F)(CF)C(N)=N2)c1 [Compound 3]

>  <efflux ratio at 60 min, 0.5 µM>
4.87

$$$$
>  <compound>
C[C@@]1(c2cc(NC(=O)c3ccn(C(F)F)n3)ccc2F)CC[C@@](F)(CF)C(N)=N1 [Compound 10]

>  <efflux ratio at 60 min, 0.5 µM>
10.6

$$$$
>  <compound>
C[C@@]1(c2cc(NC(=O)c3coc(C(F)F)n3)ccc2F)CC[C@@](F)(CF)C(N)=N1 [Compound 9]

>  <efflux ratio at 60 min, 0.5 µM>
8.61

$$$$
>  <compound>
C[C@@]1(c2cc(NC(=O)c3ccc(F)cn3)cc(F)c2F)CC[C@@](F)(CF)C(N)=N1 [Compound 15]

>  <efflux ratio at 60 min, 0.5 µM>
1.17

$$$$
>  <compound>
Cc1nc(C(=O)Nc2ccc(F)c([C@]3(C)CC[C@@](F)(CF)C(N)=N3)c2)co1 [Compound 6]

>  <efflux ratio at 60 min, 0.5 µM>
7

$$$$
>  <compound>
NC1=N[C@](CF)(c2cc(NC(=O)c3ccc(F)cn3)ccc2F)CC[C@]1(F)CF [Compound 24]

>  <efflux ratio at 60 min, 0.5 µM>
0.88

$$$$

====

assay.details: Bioanalysis of brain and plasma samples (exposure, UPLC-MS/MS)
Format: in vivo, rat
measurement.context: male, Sprague Dawley, po; rat plasma, 30 mg/kg p.o., 3 hours post dose; read-out: Exp (ng/g), plasma
Below is a list of entries, each paired with its recorded concentration at 3 h value.
measure: concentration at 3 h (ng/g)

>  <compound>
C[C@@]1(c2cc(NC(=O)c3ccc(F)cn3)ccc2F)CC[C@@](F)(CF)C(N)=N1 [Compound 13]

>  <measure>
concentration at 3 h

>  <unit.abbrev>
ng/g

>  <observed.measurement>
1000

$$$$
>  <compound>
C[C@@]1(c2cc(NC(=O)c3cnc(C(F)F)cn3)ccc2F)CC[C@@](F)(CF)C(N)=N1 [Compound 11]

>  <measure>
concentration at 3 h

>  <unit.abbrev>
ng/g

>  <observed.measurement>
590

$$$$
>  <compound>
COc1cnc(C(=O)Nc2ccc(F)c([C@]3(C)CC[C@@](F)(CF)C(N)=N3)c2)cn1 [Compound 5]

>  <measure>
concentration at 3 h

>  <unit.abbrev>
ng/g

>  <observed.measurement>
587

$$$$

====

assayed.target: human BACE1 (Homo sapiens, UniProt P56817)
Sequence (P56817 46-501): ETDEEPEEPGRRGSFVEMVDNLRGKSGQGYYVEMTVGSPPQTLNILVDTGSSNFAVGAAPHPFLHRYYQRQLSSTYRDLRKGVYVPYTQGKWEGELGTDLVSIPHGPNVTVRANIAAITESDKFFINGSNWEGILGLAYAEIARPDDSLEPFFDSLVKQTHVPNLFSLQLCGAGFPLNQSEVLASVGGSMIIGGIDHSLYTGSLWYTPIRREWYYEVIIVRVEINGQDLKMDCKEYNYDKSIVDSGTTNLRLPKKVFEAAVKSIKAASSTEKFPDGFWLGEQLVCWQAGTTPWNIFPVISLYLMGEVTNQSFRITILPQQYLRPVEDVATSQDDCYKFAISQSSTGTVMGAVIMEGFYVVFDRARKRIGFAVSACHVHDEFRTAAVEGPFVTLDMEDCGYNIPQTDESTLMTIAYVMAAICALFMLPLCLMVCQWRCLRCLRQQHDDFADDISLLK
Hi! Could you tag entries with Ki below 0.07 µM as t, and those at or above as f? Much appreciated.

>  <structure.smiles.string>
C[C@@]1(c2cc(NC(=O)c3ccc(F)cn3)cc(F)c2F)CC[C@](F)(CF)C(N)=N1

>  <assayed.target>
human BACE1 (Homo sapiens, UniProt P56817)

>  <label.class>
f

$$$$
>  <structure.smiles.string>
C[C@@]1(c2cc(NC(=O)c3ccc(F)cn3)cc(F)c2F)CC[C@@](F)(CF)C(N)=N1

>  <assayed.target>
human BACE1 (Homo sapiens, UniProt P56817)

>  <label.class>
t

$$$$
>  <structure.smiles.string>
NC1=N[C@](CF)(c2cc(NC(=O)c3ccc(F)cn3)ccc2F)CC[C@@]1(F)CF

>  <assayed.target>
human BACE1 (Homo sapiens, UniProt P56817)

>  <label.class>
t

$$$$
>  <structure.smiles.string>
NC1=N[C@](CF)(c2cc(NC(=O)c3ccc(F)cn3)ccc2F)CC[C@]1(F)CF

>  <assayed.target>
human BACE1 (Homo sapiens, UniProt P56817)

>  <label.class>
f

$$$$
>  <structure.smiles.string>
C[C@@]1(c2cc(NC(=O)c3ccc(Cl)cn3)ccc2F)CC[C@@](F)(CF)C(N)=N1

>  <assayed.target>
human BACE1 (Homo sapiens, UniProt P56817)

>  <label.class>
t

$$$$
>  <structure.smiles.string>
Cn1cc(Br)nc1C(=O)Nc1ccc(F)c([C@]2(C)CC[C@@](F)(CF)C(N)=N2)c1

>  <assayed.target>
human BACE1 (Homo sapiens, UniProt P56817)

>  <label.class>
t

$$$$

====

Below is a list of entries, each paired with its recorded concentration at 3 h value.
assay.details: Bioanalysis of brain and plasma samples (exposure, UPLC-MS/MS)
Format: in vivo, rat
measurement.context: male, Sprague Dawley, po; rat brain, 30 mg/kg p.o., 3 hours post dose; read-out: Exp (ng/g), brain

>  <structure.smiles.string>
C[C@@]1(c2cc(NC(=O)c3cnc(C(F)F)cn3)ccc2F)CC[C@@](F)(CF)C(N)=N1

>  <unit.abbrev>
ng/g

>  <concentration at 3 h>
1350

$$$$
>  <structure.smiles.string>
COc1cnc(C(=O)Nc2ccc(F)c([C@]3(C)CC[C@@](F)(CF)C(N)=N3)c2)cn1

>  <unit.abbrev>
ng/g

>  <concentration at 3 h>
1610

$$$$
>  <structure.smiles.string>
C[C@@]1(c2cc(NC(=O)c3ccc(F)cn3)ccc2F)CC[C@@](F)(CF)C(N)=N1

>  <unit.abbrev>
ng/g

>  <concentration at 3 h>
1590

$$$$

====

assay.details: Bioanalysis of brain and plasma samples (exposure, UPLC-MS/MS)
Assay type: in vivo, rat
measurement.context: male, Sprague Dawley, po; rat brain, 10 mg/kg p.o., 3 hours post dose; read-out: Exp (ng/g), brain
Below is a list of entries, each paired with its recorded concentration at 3 h value.

>  <structure.smiles.string>
C[C@@]1(c2cc(NC(=O)c3cnc(C(F)F)cn3)ccc2F)CC[C@@](F)(CF)C(N)=N1

>  <concentration at 3 h, ng/g>
416

$$$$
>  <structure.smiles.string>
C[C@@]1(c2cc(NC(=O)c3ccc(F)cn3)ccc2F)CC[C@@](F)(CF)C(N)=N1

>  <concentration at 3 h, ng/g>
588

$$$$
>  <structure.smiles.string>
COc1cnc(C(=O)Nc2ccc(F)c([C@]3(C)CC[C@@](F)(CF)C(N)=N3)c2)cn1

>  <concentration at 3 h, ng/g>
536

$$$$
